Provenance of the data: patent US20210070843A1

Consider the following binders and their measured EC50 readings.
studyTarget: cell surface-expressed H3N2 WN/05 HA trimer (influenza A virus A/Wisconsin/67/2005 (H3N2))
assaySummary: flow cytometry, HA-expressing 293T
Field format: number, assumed µg/mL, no unit text.

Look up EC50 for this binder: S10 (antibody, V domains shown) VH: EVQLVESGGGLVQPGGSLRLSCAASGFTIGGYGIHWVRQAPGKGLEWVASIGPSWGFTFYADSVKGRFTISADTSKNTAYLQMNSLRAEDTAVYYCARFNWVINGVTDYWGQGTLVTVSS VL: DIQMTQSPSSLSASVGDRVTITCRASQDVSYYVAWYQQKPGKAPKLLIFWSTFLYSGVPSRFSGSGSGTDFTLTISSLQPEDFATYYCQQYYDSPMTFGQGTKVEIKR
7.86

Try this binder next: S07 (antibody, V domains shown) VH: EVQLVESGGGLVQPGGSLRLSCAASGFTINSSGIHWVRQAPGKGLEWVASIGPSWGSTYYADSVKGRFTISADTSKNTAYLQMNSLRAEDTAVYYCARFGIGDIDVMDYWGQGTLVTVSS VL: DIQMTQSPSSLSASVGDRVTITCRASQDVWGYVAWYQQKPGKAPKLLISYASFLYSGVPSRFSGSGSGTDFTLTISSLQPEDFATYYCQQYFNWPVTFGQGTKVEIKR
3.71

What about P58 (antibody, V domains shown) VH: EVQLVESGGGLVQPGGSLRLSCAASGFTIGGGGIHWVRQAPGKGLEWVAWIWPYWGYTYYADSVKGRFTISADTSKNTAYLQMNSLRAEDTAVYYCARFNSYSYSGVMDYWGQGTLVTVSS VL: DIQMTQSPSSLSASVGDRVTITCRASQDVYSYVAWYQQKPGKAPKLLISSSRGLYSGVPSRFSGSGSGTDFTLTISSLQPEDFATYYCQQYSSFPITFGQGTKVEIKR ?
3.58

Do the same for S45 (antibody, V domains shown) VH: EVQLVESGGGLVQPGGSLRLSCAASGFTINGSSIHWVRQAPGKGLEWVAYIGPFGGSTYYADSVKGRFTISADTSKNTAYLQMNSLRAEDTAVYYCARFWHGYNLYMDYWGQGTLVTVSS VL: DIQMTQSPSSLSASVGDRVTITCRASQDVGWWVAWYQQKPGKAPKLLIYGARFLYSGVPSRFSGSGSGTDFTLTISSLQPEDFATYYCQQYFNGPLTFGQGTKVEIKR please
15.8

Further cases:
Requested field: EC50. Item: C05 (antibody, V domains shown) VH: PVQLQESGGGLVQPGESLRLSCVGSGSSFGESTLSYYAVSWVRQAPGKGLEWLSIINAGGGDIDYADSVEGRFTISRDNSKETLYLQMTNLRVEDTGVYYCAKHMSMQQVVSAGWERADLVGDAFDVWGQGTMVTVSS VL: DIQLTQSPSSLSASVGDRVTLTCQASQDIRKFLNWYQQKPGKGPKLLIYDASNLQRGVPSRFSGGGSGTDFTLIISSLQPEDVGTYYCQQYDGLPFTFGGGTKVEIKR
0.13
